Reference source: patent US20220315621A1

Reported IC50 values for a set of molecules
# systemName: TBPS binding
# protocolSummary: Steroid inhibition of TBPS binding
# measurementContext: Table II-2; read-out: TBPS IC50 (μm)

Look over these answered cases.
CC(=O)[C@H]1CC[C@H]2[C@@H]3CC=C4CC[C@](C)(O)CC[C@]4(C)[C@H]3CC[C@]12C [II-C2a]: 10 to 100 nM
C[C@]12CC[C@@H]3[C@H]4CC[C@@](C)(O)[C@@H]4CC[C@H]3[C@@H]1CC[C@@H]2C(=O)Cn1cc(C#N)cn1 [II-H13]: 1000 to 10000 nM
Cc1nnn(CC(=O)[C@H]2CC[C@H]3[C@@H]4CC[C@H]5CC[C@](C)(O)CC[C@]5(C)[C@H]4CC[C@]23C)n1 [II-C11]: 10 to 100 nM

Here's the next entry for you.
Recorded IC50 for C[C@]1(O)CCC2=CC[C@H]3[C@@H]4CC[C@H](C(=O)Cn5cc(C#N)cn5)[C@@]4(C)CC[C@@H]3[C@@]2(C)CC1 [II-F3] with TBPS binding, please? < 10 nM

* * *

# systemName: GABAA receptor (rat brain cortical membranes, [35S]-TBPS binding)
# measurementContext: Table I-5; rat brain cortical membranes, 3 nM [35S]-TBPS, in the presence of 5 mM GABA
Reported IC50 values for a set of compounds

In the examples that follow, each entry is paired with its recorded IC50.
C[C@@]1(O)CC[C@H]2[C@H](CC[C@@H]3[C@@H]2CC[C@]2(C)[C@@H](C(=O)Cn4nccn4)C[C@@H]32)C1 [I-AA11]: 1000 to 10000 nM
COC[C@@]1(O)CC[C@H]2[C@H](CC[C@@H]3[C@@H]2CC[C@]2(C)[C@H](C(=O)Nc4ccccc4)C[C@@H]32)C1 [I-AC8a]: 1000 to 10000 nM

Entry under review: C[C@@]1(O)CC[C@H]2[C@@H](CC[C@@H]3[C@@H]2CC[C@]2(C)[C@@H](C(=O)Cn4cc(C#N)cn4)C[C@@H]32)C1 [I-AD10] . Reported IC50? 1000 to 10000 nM

Which measured IC50 value corresponds to COC[C@@]1(O)CC[C@H]2[C@H](CC[C@@H]3[C@@H]2CC[C@]2(C)[C@@H](C(C)=O)C[C@@H]32)C1 [I-AC11] ? 100 to 1000 nM

GET /values?readout=IC50&item= COC[C@@]1(O)CC[C@H]2[C@H](CC[C@@H]3[C@@H]2CC[C@]2(C)[C@@H](C(=O)Nc4ccccc4)C[C@@H]32)C1 [I-AC8] 1000 to 10000 nM

Which IC50 reading was recorded for the compound C[C@@]1(O)CC[C@H]2[C@H](CC[C@@H]3[C@@H]2CC[C@]2(C)[C@@H](C(=O)Cn4ccnn4)C[C@@H]32)C1 [I-AA12] ? 1000 to 10000 nM

* * *

// values below are reported pIC50
# systemName: GABAA receptor (rat brain cortical membranes, [35S]-TBPS binding)
# measurementContext: Table I-6; rat brain cortical membranes, 3 nM [35S]-TBPS, in the presence of 5 mM GABA
pIC50: −log10 of the molar value.

Please review the following examples before continuing.
C[C@@]1(O)CC[C@H]2[C@H](CC[C@@H]3[C@@H]2CC[C@]2(C)[C@@H](CO)CCCC[C@@H]32)C1: 6.00 to 7.00
CC(=O)[C@H]1CCCC[C@H]2[C@@H]3CC[C@@H]4C[C@](C)(O)CC[C@@H]4[C@H]3CC[C@]12C: 7.00 to 8.00
C[C@@]1(O)CC[C@H]2[C@H](CC[C@@H]3[C@@H]2CC[C@]2(C)[C@@H](C#N)CCCC[C@@H]32)C1: 7.00 to 8.00

May I ask what pIC50 has been recorded for C[C@@]1(O)CC[C@H]2[C@H](CC[C@@H]3[C@@H]2CC[C@]2(C)[C@@H](C(=O)Nc4ccccc4)CCCC[C@@H]32)C1 ? 7.00 to 8.00
